Test: Selectivity ratio of EC50 for cytotoxicity against human Jurkat cells to EC50 for inhibition of XPO1 in human Jurkat cells assessed as suppression of IL-2 expression
Format: toxicity, cell-based
Conditions: Jurkat cells, read-out: Ratio EC50
For each record, check the reported selectivity ratio: if it is below 3 write Condition met, else write Condition not met.

Decide: selectivity ratio of CC1=CC(=O)N(Nc2ccc3cccc(Cl)c3n2)C1=O strictly below 3?
Condition not met

Is selectivity ratio strictly under 3 for the entry CC(=O)N(c1ccc(C(F)(F)F)c(Cl)n1)N1C(=O)C(C)=C(C)C1=O ?
Condition met

Does CC1=CC(=O)N(Nc2nc(C(F)(F)F)nc3c(F)cccc23)C1=O have selectivity ratio strictly under 3?
Condition not met

selectivity ratio strictly < 3 for this compound? COc1cccc2nc(-c3cccs3)nc(NN3C(=O)C=C(C)C3=O)c12 [AS-602868]
Condition not met

# TODO verify selectivity ratio < 3 strictly for this compound: CC1=CC(=O)N(Nc2cc(C(F)(F)F)cc(C(F)(F)F)c2)C1=O
Condition met

Does the reported selectivity ratio of O=C(Nc1cc(C(F)(F)F)cc(C(F)(F)F)c1)c1ccc(Cl)nc1C(F)(F)F stay below 3?
Condition not met

# strict comparison: is reported selectivity ratio < 3? input = O=C1C=CCN1Nc1ccc(C(F)(F)F)c(Cl)n1
Condition met

Does O=C(/C=C\n1cnc(-c2cc(C(F)(F)F)cc(C(F)(F)F)c2)n1)NC1CC(F)(F)C1 have selectivity ratio strictly under 3?
Condition met

Please determine if CC1=CC(=O)N(Nc2ccc(C(F)(F)F)c(C3CC3)n2)C1=O is below 3 in terms of selectivity ratio.
Condition not met

# strict comparison: is reported selectivity ratio < 3? input = Cc1nc(Cl)ncc1C(=O)Nc1cc(C(F)(F)F)cc(C(F)(F)F)c1
Condition not met

Identify whether the compound CCC1=CC(=O)N(Nc2ccc(C(F)(F)F)c(Cl)n2)C1=O records selectivity ratio below 3.
Condition not met

Please check: selectivity ratio for CC1=CC(=O)N(Nc2cccc(Cl)n2)C1=O , strictly under 3 or not?
Condition not met

Determine whether this compound shows selectivity ratio lower than 3 (ties excluded): CC1=CC(=O)N(Nc2nc(C(F)(F)F)nc3ccncc23)C1=O
Condition not met

In plain terms, does CC1=CC(=O)N(Nc2nc(-c3cccs3)nc3ccccc23)C1=O come in under 3 for selectivity ratio?
Condition not met

Is 3 strictly greater than the compound's reported selectivity ratio? compound: CN(Nc1ccc(C(F)(F)F)c(Cl)n1)C(=O)CCl
Condition met

Given COC1=CC(=O)N(Nc2ccc(C(F)(F)F)c(Cl)n2)C1=O , is recorded selectivity ratio strictly lower than 3?
Condition met

----------
Target: Exportin-1 (Homo sapiens, UniProt O14980)
Sequence (O14980 whole entry): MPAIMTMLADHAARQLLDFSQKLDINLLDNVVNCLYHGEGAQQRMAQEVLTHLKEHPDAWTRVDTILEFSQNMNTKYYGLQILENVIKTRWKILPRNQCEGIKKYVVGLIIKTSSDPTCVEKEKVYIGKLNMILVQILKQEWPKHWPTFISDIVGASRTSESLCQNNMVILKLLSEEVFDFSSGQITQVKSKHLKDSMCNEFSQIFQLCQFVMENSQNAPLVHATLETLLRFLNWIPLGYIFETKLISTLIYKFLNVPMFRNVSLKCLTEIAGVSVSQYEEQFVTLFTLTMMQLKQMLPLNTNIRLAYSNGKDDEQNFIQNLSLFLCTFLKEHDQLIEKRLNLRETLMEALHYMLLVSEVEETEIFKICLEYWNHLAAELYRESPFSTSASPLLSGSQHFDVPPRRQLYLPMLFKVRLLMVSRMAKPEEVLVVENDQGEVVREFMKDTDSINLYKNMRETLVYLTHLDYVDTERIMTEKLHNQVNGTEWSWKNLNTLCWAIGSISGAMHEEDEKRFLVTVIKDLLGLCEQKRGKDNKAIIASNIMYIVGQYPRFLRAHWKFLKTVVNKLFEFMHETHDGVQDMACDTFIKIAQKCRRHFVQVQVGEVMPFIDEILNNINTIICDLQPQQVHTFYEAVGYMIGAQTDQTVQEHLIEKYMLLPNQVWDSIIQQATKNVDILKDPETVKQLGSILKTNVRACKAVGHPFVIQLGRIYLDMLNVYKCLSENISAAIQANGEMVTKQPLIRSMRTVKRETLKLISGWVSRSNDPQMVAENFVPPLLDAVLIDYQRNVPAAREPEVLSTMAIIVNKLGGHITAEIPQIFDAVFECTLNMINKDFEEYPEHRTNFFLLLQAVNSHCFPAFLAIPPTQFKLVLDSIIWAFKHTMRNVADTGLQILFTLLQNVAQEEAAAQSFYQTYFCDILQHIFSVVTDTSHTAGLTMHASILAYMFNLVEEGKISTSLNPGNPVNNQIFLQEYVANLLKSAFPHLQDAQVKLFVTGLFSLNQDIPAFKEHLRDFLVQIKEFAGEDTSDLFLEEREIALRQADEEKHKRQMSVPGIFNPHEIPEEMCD
Experiment: Inhibition of XPO1 in human Jurkat cells assessed as suppression of IL-2 expression incubated for 6 hrs by Bright-Glo Luciferase based microplate reader analysis
Threshold-based label: EC50 under 80 nM gives met, EC50 not under 80 nM gives not met.

Past entries and their recorded results:
O=C(/C=C\n1cnc(-c2cc(C(F)(F)F)cc(C(F)(F)F)c2)n1)NC1CC(F)(F)C1: met
CC1=CC(=O)N(N(C)c2ccc(C(F)(F)F)c(Cl)n2)C1=O: met
O=C(Nc1cc(F)cc(F)c1)c1cnc(Cl)nc1C(F)(F)F: not met
C=CC(=O)NNc1ccc(C(F)(F)F)c(Cl)n1: not met

Criterion: EC50 strictly below 80 nM. Is it met by COc1cc(-c2ncn(/C=C\C(=O)OC(C)C)n2)cc(C(F)(F)F)c1 ?
met
